procedure.details: chemical genetic growth profiling, strain panel (AID 1159580);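 also: tested at 20 µM; growth read once vehicle control cultures reached saturation at 30 °C; 1 = growth at the plate median or of vehicle wells; lower values mean less growth of the strain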
details: S. cerevisiae deletion strains, growth OD, locus YCL069W, strain vba3, hits give low values
Out of some 5,500 compounds screened, about 2,000 (36%) were called active. Another 18% or so got no clear call; they are omitted. Some of the results follow.
assay.metric: normalized growth
Answer with a bare number; do not write a unit.

What value of normalized growth has been recorded for this entry: O=[N+]([O-])c1cccc2cn[nH]c12
0.986

What does the data say about its normalized growth? Entry: COc1ccc(C(=O)CC(=O)c2ccc(C(C)(C)C)cc2)cc1
0.993

I would be grateful if you could share the reported normalized growth for CNC(=O)Oc1ccc2c(c1)[C@]1(C)CCN(C)[C@@H]1N2C .
1.02

Form field: reported normalized growth of Nc1cc(C(Cl)=C(Cl)Cl)c(S(N)(=O)=O)cc1S(N)(=O)=O
1.01

Please look up its normalized growth: c1ccc2nc(N3CCNCC3)ccc2c1
0.982

For the compound CCOC(=O)[C@H](CCc1ccccc1)N[C@@H](C)C(=O)N1Cc2ccccc2C[C@H]1C(=O)O , what normalized growth is on record?
0.986

For the compound shown here, CN(C)CCC(c1ccc(Br)cc1)c1ccccn1 (stereo unspecified) , give the reported normalized growth.
0.985

Report normalized growth for CN1CCN(C2=Nc3ccccc3Oc3ccc(Cl)cc32)CC1 please.
0.999

Returns the measured normalized growth for the input compound. Input: Cc1ncc([N+](=O)[O-])n1CC(C)O (stereo unspecified)
0.975

GET /values?readout=normalized growth&item= Cc1cc(O)c(C=O)c2c1C(=O)Oc1c(COC(=O)/C=C/C(=O)O)c(O)c(C(=O)O)c(C)c1O2
0.973

// normalized growth lookup, key: Clc1ccc2c(c1)C(N1CCNCC1)=Nc1ccccc1O2
0.969

----------
Reported values of normalized growth for individual entries
procedure.details: chemical genetic growth profiling, strain panel (AID 1159580);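 also: tested at 20 µM; growth read once vehicle control cultures reached saturation at 30 °C; 1 = growth at the plate median or of vehicle wells; lower values mean less growth of the strain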
details: S. cerevisiae deletion strains, growth OD, locus YER155C, strain BEM2, hits give low values
Screen size: about 5,500 compounds; about 2,000 (36%) were called active. Another 18% or so got no clear call; they are omitted. The list shows a part of the results.
Number, no unit, nothing else.

// solved cases for normalized growth follow
INSERT INTO results (molecule, quantitative_result) VALUES
  ('N[C@H](Cc1ccccc1)C(=O)O', 1),
  ('N[C@H](Cc1cc(I)c(Oc2ccc(O)c(I)c2)c(I)c1)C(=O)O', 0.997),
  ('CNC(=O)Oc1ccc2c(c1)[C@]1(C)CCN(C)[C@@H]1N2C', 0.993),
  ('N[C@@H](Cc1cc(I)c(Oc2cc(I)c(O)c(I)c2)c(I)c1)C(=O)O', 1.06);

Quick one: normalized growth of CN1CC(CNC(=O)OCc2ccccc2)CC2c3cccc4c3c(cn4C)CC21 (stereo unspecified) ?
0.991

Given the entry S=P(N1CC1)(N1CC1)N1CC1 , report its measured normalized growth.
1

----------
procedure.details: chemical genetic growth profiling, strain panel (AID 1159580);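 also: tested at 20 µM; growth read once vehicle control cultures reached saturation at 30 °C; 1 = growth at the plate median or of vehicle wells; lower values mean less growth of the strain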
details: S. cerevisiae deletion strains, growth OD, locus YGR052W, strain FMP48, hits give low values
Out of some 5,500 compounds screened, about 2,000 (36%) were called active. Not shown: some 18% with an inconclusive outcome. Some of the results follow.
Catalogue of normalized growth readings, one per entry.
Answer with a bare number; do not write a unit.

INSERT INTO results (structure_smiles, quantitative_result) VALUES
  ('S=C(Nc1cc(Cl)c(Cl)cc1Cl)Nc1ccccc1Br', 0.848),
  ('S=C(NNc1ccccc1)Nc1cc(Cl)ccc1Cl', 1.02),
  ('Cc1c(S(=O)(=O)c2ccc(Cl)cc2)csc1C(=O)NNc1cccc(Cl)c1', 0.71),
  ('CS(=O)(=O)c1sc(C(=O)Sc2ccc(Cl)cc2)c2c1C=CCC2', 0.492),
  ('O=C(Nc1ccc(F)c(Cl)c1)c1ccccc1O', 0.8),
  ('O=C(Nc1cccc2ccccc12)c1ccccc1O', 0.556);

Consider now this further molecule.
Value lookup for normalized growth; key = COc1ccc(OC)c(-c2ccn[nH]2)c1OCc1ccccc1
0.948

Sourced from PubChem BioAssay AID1159580
